target: Vascular endothelial growth factor A, long form (Homo sapiens, UniProt P15692); experiment: Inhibition of VEGF-A production in human HCT116 cells after 12 hrs by alphaLISA assay
Sequence (P15692 whole entry): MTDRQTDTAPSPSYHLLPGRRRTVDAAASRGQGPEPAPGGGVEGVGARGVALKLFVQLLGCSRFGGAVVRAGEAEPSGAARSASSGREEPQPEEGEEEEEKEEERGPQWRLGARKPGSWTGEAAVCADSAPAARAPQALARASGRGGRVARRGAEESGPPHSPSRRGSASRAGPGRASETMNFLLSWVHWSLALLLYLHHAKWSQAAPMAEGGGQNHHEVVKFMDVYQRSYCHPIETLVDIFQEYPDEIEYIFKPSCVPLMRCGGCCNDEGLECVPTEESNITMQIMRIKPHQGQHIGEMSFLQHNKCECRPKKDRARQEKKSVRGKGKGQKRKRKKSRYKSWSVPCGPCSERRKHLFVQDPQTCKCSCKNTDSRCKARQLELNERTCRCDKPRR
Listing: IC50 of selected compounds
valueKind: IC50 (pM)

>>> readoutvalue("CC[C@H](C)[C@H]1C(=O)N2CCC[C@H]2C(=O)O[C@H](C(C)(C)C)C[C@@H](C)C[C@H](O)CC2=N[C@@H](CCC(=O)N[C@@H](Cc3ccc(OC)cc3)C(=O)N(C)[C@@H](C)C(=O)N1C)CS2")
300
>>> readoutvalue("CC[C@H](C)[C@H]1C(=O)N2CCC[C@H]2C(=O)O[C@H](C(C)(C)C)C[C@@H](C)C[C@H](O)[C@H](C)C2=N[C@H](CCC(=O)N[C@@H](Cc3ccc(OC)cc3)C(=O)N(C)[C@@H](C)C(=O)N1C)CS2")
120
>>> readoutvalue("CC[C@H](C)[C@H]1C(=O)N2CCC[C@H]2C(=O)O[C@H](C(C)(C)C)C[C@@H](C)C[C@H](O)C(C)(C)C2=N[C@@H](CCC(=O)N[C@@H](Cc3ccc(OC)cc3)C(=O)N(C)[C@@H](C)C(=O)N1C)CS2")
470
>>> readoutvalue("CC[C@H](C)[C@H]1C(=O)N2CCC[C@H]2C(=O)O[C@H](C(C)(C)C)C[C@@H](C)C[C@H](O)[C@H](C)C2=N[C@@H](CCC(=O)N[C@@H](Cc3ccc(OC)cc3)C(=O)N(C)[C@@H](C)C(=O)N1C)CS2")
320

###

system: Liver; experiment: Metabolic stability in CD1 mouse liver microsomes assessed as compound remaining at 1 uM after 30 mins by HPLC-MS analysis in presence of NADPH; type: ADME; settings: 0.5 h
valueKind: Stability (%)

>>> readoutvalue("CC[C@H](C)[C@H]1C(=O)N2CCC[C@H]2C(=O)O[C@H](C(C)(C)C)C[C@@H](C)C[C@H](O)[C@H](C)C2=N[C@H](CCC(=O)N[C@@H](Cc3ccc(OC)cc3)C(=O)N(C)[C@@H](C)C(=O)N1C)CS2")
3.73
>>> readoutvalue("CC[C@H](C)[C@H]1C(=O)N2CCC[C@H]2C(=O)O[C@H](C(C)(C)C)C[C@@H](C)C[C@H](O)[C@H](C)C2=N[C@@H](CCC(=O)N[C@@H](Cc3ccc(OC)cc3)C(=O)N(C)[C@@H](C)C(=O)N1C)CS2 [APRATOXIN S4]")
9.58
>>> readoutvalue("CC[C@H](C)[C@H]1C(=O)N2CCC[C@H]2C(=O)O[C@H](C(C)(C)C)C[C@@H](C)C[C@H](O)C(C)(C)C2=N[C@@H](CCC(=O)N[C@@H](Cc3ccc(OC)cc3)C(=O)N(C)[C@@H](C)C(=O)N1C)CS2")
4.83
>>> readoutvalue("CC[C@H](C)[C@H]1C(=O)N2CCC[C@H]2C(=O)O[C@H](C(C)(C)C)C[C@@H](C)C[C@H](O)CC2=N[C@@H](CCC(=O)N[C@@H](Cc3ccc(OC)cc3)C(=O)N(C)[C@@H](C)C(=O)N1C)CS2")
6.1

###

tested on: Liver; assay: Metabolic stability in CD1 mouse liver microsomes assessed as compound remaining at 1 uM after 60 mins by HPLC-MS analysis in presence of NADPH; type: ADME; settings: 1 h
valueKind: Stability (%)

>>> readoutvalue("CC[C@H](C)[C@H]1C(=O)N2CCC[C@H]2C(=O)O[C@H](C(C)(C)C)C[C@@H](C)C[C@H](O)[C@H](C)C2=N[C@H](CCC(=O)N[C@@H](Cc3ccc(OC)cc3)C(=O)N(C)[C@@H](C)C(=O)N1C)CS2")
6.06
>>> readoutvalue("CC[C@H](C)[C@H]1C(=O)N2CCC[C@H]2C(=O)O[C@H](C(C)(C)C)C[C@@H](C)C[C@H](O)C(C)(C)C2=N[C@@H](CCC(=O)N[C@@H](Cc3ccc(OC)cc3)C(=O)N(C)[C@@H](C)C(=O)N1C)CS2")
3.55
>>> readoutvalue("CC[C@H](C)[C@H]1C(=O)N2CCC[C@H]2C(=O)O[C@H](C(C)(C)C)C[C@@H](C)C[C@H](O)CC2=N[C@@H](CCC(=O)N[C@@H](Cc3ccc(OC)cc3)C(=O)N(C)[C@@H](C)C(=O)N1C)CS2")
5.41
>>> readoutvalue("CC[C@H](C)[C@H]1C(=O)N2CCC[C@H]2C(=O)O[C@H](C(C)(C)C)C[C@@H](C)C[C@H](O)[C@H](C)C2=N[C@@H](CCC(=O)N[C@@H](Cc3ccc(OC)cc3)C(=O)N(C)[C@@H](C)C(=O)N1C)CS2 [APRATOXIN S4]")
10

###

tested on: Liver; experiment: Metabolic stability in CD1 mouse liver microsomes assessed as compound remaining at 1 uM after 30 mins by HPLC-MS analysis; type: ADME; conditions: 0.5 h
Listing: Stability of selected compounds
valueKind: Stability (%)

>>> readoutvalue("CC[C@H](C)[C@H]1C(=O)N2CCC[C@H]2C(=O)O[C@H](C(C)(C)C)C[C@@H](C)C[C@H](O)[C@H](C)C2=N[C@H](CCC(=O)N[C@@H](Cc3ccc(OC)cc3)C(=O)N(C)[C@@H](C)C(=O)N1C)CS2")
56.05
>>> readoutvalue("CC[C@H](C)[C@H]1C(=O)N2CCC[C@H]2C(=O)O[C@H](C(C)(C)C)C[C@@H](C)C[C@H](O)CC2=N[C@@H](CCC(=O)N[C@@H](Cc3ccc(OC)cc3)C(=O)N(C)[C@@H](C)C(=O)N1C)CS2")
54.8
>>> readoutvalue("CC[C@H](C)[C@H]1C(=O)N2CCC[C@H]2C(=O)O[C@H](C(C)(C)C)C[C@@H](C)C[C@H](O)[C@H](C)C2=N[C@@H](CCC(=O)N[C@@H](Cc3ccc(OC)cc3)C(=O)N(C)[C@@H](C)C(=O)N1C)CS2")
73.85
>>> readoutvalue("CC[C@H](C)[C@H]1C(=O)N2CCC[C@H]2C(=O)O[C@H](C(C)(C)C)C[C@@H](C)C[C@H](O)C(C)(C)C2=N[C@@H](CCC(=O)N[C@@H](Cc3ccc(OC)cc3)C(=O)N(C)[C@@H](C)C(=O)N1C)CS2")
74.75

###

system: Liver; test: Metabolic stability in CD1 mouse liver microsomes assessed as compound remaining at 1 uM after 15 mins by HPLC-MS analysis; format: ADME; settings: 0.25 h
valueKind: Stability (%)

>>> readoutvalue("CC[C@H](C)[C@H]1C(=O)N2CCC[C@H]2C(=O)O[C@H](C(C)(C)C)C[C@@H](C)C[C@H](O)[C@H](C)C2=N[C@@H](CCC(=O)N[C@@H](Cc3ccc(OC)cc3)C(=O)N(C)[C@@H](C)C(=O)N1C)CS2")
87.2
>>> readoutvalue("CC[C@H](C)[C@H]1C(=O)N2CCC[C@H]2C(=O)O[C@H](C(C)(C)C)C[C@@H](C)C[C@H](O)[C@H](C)C2=N[C@H](CCC(=O)N[C@@H](Cc3ccc(OC)cc3)C(=O)N(C)[C@@H](C)C(=O)N1C)CS2")
45.25
>>> readoutvalue("CC[C@H](C)[C@H]1C(=O)N2CCC[C@H]2C(=O)O[C@H](C(C)(C)C)C[C@@H](C)C[C@H](O)CC2=N[C@@H](CCC(=O)N[C@@H](Cc3ccc(OC)cc3)C(=O)N(C)[C@@H](C)C(=O)N1C)CS2")
76.55
>>> readoutvalue("CC[C@H](C)[C@H]1C(=O)N2CCC[C@H]2C(=O)O[C@H](C(C)(C)C)C[C@@H](C)C[C@H](O)C(C)(C)C2=N[C@@H](CCC(=O)N[C@@H](Cc3ccc(OC)cc3)C(=O)N(C)[C@@H](C)C(=O)N1C)CS2")
63.45

Every entry's value here was drawn from ChEMBL document CHEMBL3232820.
